Numbers sourced from ChEMBL document CHEMBL1128369.

Tested on: HEL
Procedure details: Concentration that inhibits HCMV yield by 90% relative to control cultures without drugs
Type: functional
Test context: Homo sapiens
For each record, check the reported IC90: if it is below 60 µM write Condition met, else write Condition not met.

Example results:
Compound	Class assignment
Nc1nc(Cl)cc(Nc2ccc(Cl)c(Cl)c2)n1	Condition met
Oc1[nH]c(Nc2cc(Cl)cc(Cl)c2)nc2ncnc1-2	Condition met
Nc1nc(O)cc(Nc2cc(Cl)cc(Cl)c2)n1	Condition not met
Nc1nc(Cl)cc(Nc2cc(Cl)cc(Cl)c2)n1	Condition met
Nc1nc2c(ncn2COC(CO)CO)c(=O)[nH]1 [GANCICLOVIR]	Condition met
Oc1cc(Nc2cc(Cl)cc(Cl)c2)nc(O)n1	Condition not met

Turning now to a further compound:
IC90 strictly < 60 µM for this compound? Nc1[nH]c(Nc2cc(Cl)cc(Cl)c2)nc2ncnc1-2
Condition met

* * *

Tested on: HEL
Procedure details: Inhibition against DNA of uninfected HEL cells by incorporation of [3H]TdR.
Assay type: functional, cell-based
Test context: Homo sapiens
Reported endpoint: pIC50
Just the number, please; pIC50 means minus log10 of the concentration in mol/L.

May I ask what pIC50 has been recorded for OCCOCn1cnc2c(O)nc(Nc3cc(Cl)cc(Cl)c3)nc21 ?
4.85

// next record Oc1[nH]c(Nc2cc(Cl)cc(Cl)c2)nc2ncnc1-2
3.40

* * *

System: HEL
Procedure details: Inhibition against DNA of uninfected HEL cells by incorporation of [3H]TdR.
Type: functional, cell-based
Test context: Homo sapiens
# pIC50 values compiled below
Just so you know, pIC50 here is -log10 of the concentration in molar units; reply with that number alone.

Compound	Assayed system	pIC50
Nc1nc(Cl)cc(Nc2ccc(Cl)c(Cl)c2)n1	HEL	4.51

Which pIC50 is reported for this compound? OCC(CO)OCn1cnc2c(O)nc(Nc3cc(Cl)cc(Cl)c3)nc21
4.38

Now the compound Nc1nc(Nc2cc(Cl)cc(Cl)c2)nc2c1ncn2[C@H]1C[C@H](O)[C@@H](CO)O1
6.30

Input OCCOCn1cnc2c(Cl)nc(Nc3cc(Cl)cc(Cl)c3)nc21
4.84

Cool, now OC[C@H]1O[C@@H](n2cnc3c(Cl)nc(Nc4cc(Cl)cc(Cl)c4)nc32)C[C@@H]1O
5.47

Also Nc1nc(O)cc(Nc2ccc(Cl)c(F)c2)n1 , if possible.
3.78

* * *

Test system: HEL
Procedure details: Inhibition against DNA of uninfected HEL cells by incorporation of [3H]TdR.
Assay type: functional, cell-based
Test context: Homo sapiens
Parameter IC50: see the listing below.

Known results for compounds:
Compound	Assayed system	IC50
Oc1cc(Nc2ccc(Cl)c(F)c2)nc(O)n1	HEL	> 200 µM
Nc1nc(O)cc(Nc2ccc(F)c(F)c2)n1	HEL	> 200 µM

Read the next record carefully.
Please look up its IC50: Oc1cc(Nc2cc(F)cc(F)c2)nc(O)n1
> 200 µM
